Molecular target: human orexin 1 receptor (hOx1R) (Homo sapiens)
Construct: expressed in transfected cells
Sequence (O43613 1-425): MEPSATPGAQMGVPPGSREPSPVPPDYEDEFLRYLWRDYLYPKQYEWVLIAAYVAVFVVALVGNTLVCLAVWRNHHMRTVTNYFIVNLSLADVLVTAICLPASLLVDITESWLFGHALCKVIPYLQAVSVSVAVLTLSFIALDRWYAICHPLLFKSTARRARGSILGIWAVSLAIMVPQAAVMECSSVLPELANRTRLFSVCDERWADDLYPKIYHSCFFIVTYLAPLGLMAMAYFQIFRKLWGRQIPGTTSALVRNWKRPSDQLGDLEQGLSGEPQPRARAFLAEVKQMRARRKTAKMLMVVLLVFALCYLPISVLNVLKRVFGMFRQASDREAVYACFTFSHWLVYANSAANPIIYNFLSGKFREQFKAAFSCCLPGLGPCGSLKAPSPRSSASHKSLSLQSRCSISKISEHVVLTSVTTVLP
Test: Radioligand binding assay ([125I]orexin A competition), hOx1R
Settings: CHO or HEK cell membranes, 1 h room temperature
Assign labels as follows, please: label 1 for Kd below 200 nM; label 0 for Kd equal to or exceeding 200 nM.

Worked examples follow.
CN(C(=O)c1cccc2[nH]ccc12)[C@H](CCNC(=O)c1ccccn1)Cc1ccccc1 [Example 11]: label 1
CN(C(=O)c1ccc2occc2c1)[C@H](CCNC(=O)c1ccccn1)Cc1ccccc1 [Example 20]: label 1
CN(C(=O)c1ccc2ccccc2c1)[C@H](CCNC(=O)c1ccccn1)Cc1ccccc1 [Example 21]: label 1
CN(C(=O)c1cccc2ccccc12)[C@H](CCNC(=O)c1nc2ccccc2n1C)Cc1ccc(F)cc1 [Example 24]: label 0
CN(C(=O)c1ccc2c(ccn2C)c1)[C@H](CCNC(=O)c1ccccn1)Cc1ccccc1 [Example 84]: label 1

Enquiry: Please determine if CN(C(=O)c1ccc2c(c1)OC(F)(F)O2)[C@H](CCNC(=O)c1cccn1C)Cc1ccccc1 [Example 107] is below 200 nM in terms of Kd.
Return: label 0

Enquiry: Next: CN(C(=O)c1cccc2c1OCO2)[C@@H](CCNC(=O)c1ccccn1)Cc1ccccc1 [Example 61]
Return: label 0

Enquiry: Next: CN(C(=O)c1ccccc1)[C@@H](Cc1ccccc1)[C@@H](O)CNC(=O)c1ccccn1 [Example 95]
Return: label 0

Enquiry: Next: [2H]C([2H])(c1ccccc1)C(CCNC(=O)c1ccccn1)N(C)C(=O)c1ccc2c(c1)OCO2 (stereo not shown) [Example 110]
Return: label 0

Data credit: patent US20100222396A1
